- SUBJECT_OF_TEST: human muscarinic acetylcholine M3 receptor (M3-ACh) (Homo sapiens, UniProt P20309)
- Construct: expressed in transfected cells; host or cells: CHO-K1 (Chinese Hamster Ovary) cell membranes
- Sequence (P20309 whole entry): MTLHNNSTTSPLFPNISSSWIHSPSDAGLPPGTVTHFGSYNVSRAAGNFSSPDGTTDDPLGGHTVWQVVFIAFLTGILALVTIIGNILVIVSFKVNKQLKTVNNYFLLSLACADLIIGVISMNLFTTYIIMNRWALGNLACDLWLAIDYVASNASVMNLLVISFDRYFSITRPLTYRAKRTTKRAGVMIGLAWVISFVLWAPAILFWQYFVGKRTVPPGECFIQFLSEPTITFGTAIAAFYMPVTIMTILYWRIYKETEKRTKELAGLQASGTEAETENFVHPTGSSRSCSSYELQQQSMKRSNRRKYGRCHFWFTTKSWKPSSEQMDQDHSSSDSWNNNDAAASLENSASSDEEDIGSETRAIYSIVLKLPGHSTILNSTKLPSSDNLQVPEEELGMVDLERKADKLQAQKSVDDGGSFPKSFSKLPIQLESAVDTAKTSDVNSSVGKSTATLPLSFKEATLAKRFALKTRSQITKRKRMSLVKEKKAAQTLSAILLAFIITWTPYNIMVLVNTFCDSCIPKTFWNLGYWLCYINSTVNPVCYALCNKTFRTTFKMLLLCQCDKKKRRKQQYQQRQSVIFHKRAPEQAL
- MEASUREMENT_DESCRIPTION: Muscarinic 3 Receptor Binding Assay, % inhibition specific binding at 1 μM
- EXPERIMENTAL_CONTEXT: 1 μM compound, % inhibition specific [3H]-NMS binding
- Experimental: The following experimental procedure was used to determine the M3% inhibition at 1 μM of the compounds of Examples 116-263. Muscarinic 3 Receptor Binding Assay The activity (% inhibition specific binding) of compounds -on the M3 receptor is determined by competition binding of [^3H]N-methyl scopolamine (NMS) to CHO-K1 (Chinese Hamster Ovary) cell membranes expressing the human muscarinic acetylcholine M3 receptor (M3-ACh) in a scintillation proximity assay (SPA) format. […]
ASSAY_ENDPOINT: inhibition at 1 µM (%)

# COMPOUND, ENDPOINT_UNIT, MEASURED_VALUE
data = [
    ("O=C(c1ccc2occc2c1)N1CCOC2(CCN(CCOc3ccc(CNC[C@H](O)c4ccc(O)c5[nH]c(=O)sc45)cc3)CC2)C1 [Example 250]", "%", 91),
    ("CC(C)(C(=O)N1CCOC2(CCN(CCCCCCCCCNC[C@H](O)c3ccc(O)c4[nH]c(=O)sc34)CC2)C1)c1ccccc1 [Example 189]", "%", 96),
    ("Cc1nc(CC(=O)N2CCOC3(CCN(Cc4cc(F)cc(CCNC[C@H](O)c5ccc(O)c6[nH]c(=O)sc56)c4)CC3)C2)cs1 [Example 166]", "%", 69),
]

P. O=C(c1ccc2cccnc2c1)N1CCOC2(CCN(Cc3cc(F)cc(CCNC[C@H](O)c4ccc(O)c5[nH]c(=O)sc45)c3)CC2)C1 [Example 178]
Q. Cc1cc(C(=O)N2CCOC3(CCN(CCOc4ccc(CNC[C@H](O)c5ccc(O)c6[nH]c(=O)sc56)cc4)CC3)C2)oc1C [Example 236]
Which one would you say has the larger inhibition at 1 µM value: P , or Q ? Field: selected label. Fill in the label of the entry you choose.
P
(P: 89%, Q: 30%)

----------
- SUBJECT_OF_TEST: Adrenergic β2 (H292 cells) (Homo sapiens)
- Construct: endogenous in cells; host or cells: H292 cells
- Sequence (P07550 whole entry): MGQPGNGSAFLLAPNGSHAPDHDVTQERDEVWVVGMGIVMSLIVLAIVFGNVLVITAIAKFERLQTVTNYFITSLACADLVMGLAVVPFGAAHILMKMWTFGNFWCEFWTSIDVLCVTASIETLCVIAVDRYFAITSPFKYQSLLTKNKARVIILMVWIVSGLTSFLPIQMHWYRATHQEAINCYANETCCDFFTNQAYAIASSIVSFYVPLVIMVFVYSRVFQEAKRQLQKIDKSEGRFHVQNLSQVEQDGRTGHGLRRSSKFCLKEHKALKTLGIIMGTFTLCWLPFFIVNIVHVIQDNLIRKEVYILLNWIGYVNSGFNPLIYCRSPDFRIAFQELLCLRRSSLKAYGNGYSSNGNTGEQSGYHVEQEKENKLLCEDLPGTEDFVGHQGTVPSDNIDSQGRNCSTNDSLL
- MEASUREMENT_DESCRIPTION: Assay for Adrenergic β2 Mediated cAMP Production (concentration response, AlphaScreen cAMP detection)
- Format: cell-based
- EXPERIMENTAL_CONTEXT: fraction relative to the maximum activity determined for formoterol
Counter-ions that a name gives are not always drawn.
ASSAY_ENDPOINT: β2 Intrinsic activity

# MOLECULE, SUBJECT_OF_TEST, ASSAY_ENDPOINT, MEASURED_VALUE
data = [
    ("CCC(CC)c1nc(C(=O)N2CCOC3(CCN(Cc4cccc(CCNC[C@H](O)c5ccc(O)c6[nH]c(=O)ccc56)c4)CC3)C2)cs1 [Example 274, ditrifluoroacetate]", "Adrenergic β2 (H292 cells) (Homo sapiens)", "β2 Intrinsic activity", 1.0),
    ("CC(C)c1nc(C(=O)N2CCOC3(CCN(Cc4cccc(OCCNC[C@H](O)c5ccc(O)c6[nH]c(=O)sc56)c4)CC3)C2)cs1 [Example 64, ditrifluoroacetate]", "Adrenergic β2 (H292 cells) (Homo sapiens)", "β2 Intrinsic activity", 0.9),
    ("Cc1ccc(C(=O)N2CCOC3(CCN(CCCCCCCCCNC[C@H](O)c4ccc(O)c5[nH]c(=O)sc45)CC3)C2)o1", "Adrenergic β2 (H292 cells) (Homo sapiens)", "β2 Intrinsic activity", 0.8),
    ("CC(C)c1nc(C(=O)N2CCOC3(CCN(Cc4cc(CCNC[C@H](O)c5ccc(O)c6[nH]c(=O)sc56)ccc4F)CC3)C2)cs1 [Example 40, ditrifluoroacetate]", "Adrenergic β2 (H292 cells) (Homo sapiens)", "β2 Intrinsic activity", 1.1),
    ("O=C(c1csc(C2CC2)n1)N1CCOC2(CCN(Cc3cc(F)cc(CCNC[C@H](O)c4ccc(O)c5[nH]c(=O)sc45)c3)CC2)C1 [Example 57, ditrifluoroacetate]", "Adrenergic β2 (H292 cells) (Homo sapiens)", "β2 Intrinsic activity", 1.1),
    ("CCc1cc(C(=O)N2CCOC3(CCN(Cc4cc(CCNC[C@H](O)c5ccc(O)c6[nH]c(=O)sc56)ccc4F)CC3)C2)cs1 [Example 100, ditrifluoroacetate]", "Adrenergic β2 (H292 cells) (Homo sapiens)", "β2 Intrinsic activity", 0.9),
    ("CC(C)(C)c1nc(C(=O)N2CCOC3(CCN(Cc4cc(F)cc(CCNC[C@H](O)c5ccc(O)c6[nH]c(=O)sc56)c4)CC3)C2)cs1 [Example 50, ditrifluoroacetate]", "Adrenergic β2 (H292 cells) (Homo sapiens)", "β2 Intrinsic activity", 0.9),
    ("CC(C)c1ncc(C(=O)N2CCOC3(CCN(CCCCCCCCCNC[C@H](O)c4ccc(O)c5[nH]c(=O)sc45)CC3)C2)s1 [Example 115, formate]", "Adrenergic β2 (H292 cells) (Homo sapiens)", "β2 Intrinsic activity", 0.8),
    ("CCc1cc(C(=O)N2CCOC3(CCN(Cc4cccc(CCNC[C@H](O)c5ccc(O)c6[nH]c(=O)sc56)c4)CC3)C2)cs1 [Example 86, ditrifluoroacetate]", "Adrenergic β2 (H292 cells) (Homo sapiens)", "β2 Intrinsic activity", 0.8),
    ("CC(C)c1nc(C(=O)N2CCOC3(CCN(Cc4cccc(CCNC[C@H](O)c5ccc(O)c6[nH]c(=O)ccc56)c4)CC3)C2)cs1 [Example 23, ditrifluoroacetate]", "Adrenergic β2 (H292 cells) (Homo sapiens)", "β2 Intrinsic activity", 0.9),
    ("Cc1nc(C(=O)N2CCOC3(CCN(CCCCCCCCCNC[C@H](O)c4ccc(O)c5[nH]c(=O)sc45)CC3)C2)cs1 [Example 2, ditrifluoroacetate]", "Adrenergic β2 (H292 cells) (Homo sapiens)", "β2 Intrinsic activity", 0.8),
]

Where these numbers come from: patent US8148373B2
